# IC50 values compiled below
Target: KSP motor domain (Homo sapiens)
Sequence (P52732 18-359 limits assumed): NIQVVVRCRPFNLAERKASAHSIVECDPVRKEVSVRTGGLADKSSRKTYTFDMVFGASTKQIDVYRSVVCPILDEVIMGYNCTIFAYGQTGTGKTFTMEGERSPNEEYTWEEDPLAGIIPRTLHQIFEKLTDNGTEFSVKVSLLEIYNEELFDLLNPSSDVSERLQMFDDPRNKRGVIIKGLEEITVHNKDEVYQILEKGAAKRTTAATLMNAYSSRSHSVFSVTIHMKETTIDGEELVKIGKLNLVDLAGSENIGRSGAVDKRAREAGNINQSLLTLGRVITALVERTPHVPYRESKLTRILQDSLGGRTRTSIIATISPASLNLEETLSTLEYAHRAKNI
Test: biochemical
Conditions: KSP inhibitory activity, end-point assay; class symbols (Table 1); read-out: IC50

Example cases with answers are listed next.
>>> result("CC(C)(C)C1CCc2nc3sc(C(=O)Nc4ccc(N)cc4)cc3cc2C1 (stereo not drawn) [Example 226F]")
"100 to 1000 nM"
>>> result("CC(=O)NCc1cc2cc3c(nc2s1)CCC(C(C)(C)C)C3 (stereo not drawn) [Example 154]")
"1000 to 10000 nM"
>>> result("CCCC1CCc2cc3c(N)c(C#N)sc3nc2C1 (stereo not drawn) [Example 49]")
"> 10000 nM"
>>> result("CC1(C2CCc3nc4sc(C#N)c(N)c4cc3C2)CC1 (stereo not drawn) [Example 43]")
"100 to 1000 nM"

Entry under review: CC(=O)Nc1nc2cc3c(nc2s1)CCC(C(C)(C)C)C3 (stereo not drawn) [Example 135] . Reported IC50?
100 to 1000 nM

// same read-out, input: CC(C)(C)[C@@H]1CCc2nc3sc(C(=O)N[C@H](CN)c4cccc(NC(=O)c5ccon5)c4)cc3cc2C1 [Example 232]
< 100 nM
